Tested on: Bilophila wadsworthia
Experiment: Antimicrobial activity against Bilophila wadsworthia by Wadsworth agar dilution method in presence of 1% pyruvic acid
Type: functional
measurementType: MIC90

>>> measurement("NC[C@@H]1O[C@H](O[C@H]2[C@@H](O)[C@H](O[C@@H]3[C@@H](O)[C@H](N)C[C@H](N)[C@H]3O[C@H]3O[C@H](CN)[C@@H](O)[C@H](O)[C@H]3N)O[C@@H]2CO)[C@H](N)[C@@H](O)[C@@H]1O")
"> 1020 µg/mL"
>>> measurement("CN[C@H](CC(C)C)C(=O)N[C@H]1C(=O)N[C@@H](CC(N)=O)C(=O)N[C@H]2C(=O)N[C@H]3C(=O)N[C@H](C(=O)N[C@H](C(=O)O)c4cc(O)cc(O)c4-c4cc3ccc4O)[C@H](O)c3ccc(c(Cl)c3)Oc3cc2cc(c3O[C@@H]2O[C@H](CO)[C@@H](O)[C@H](O)[C@H]2O[C@H]2C[C@](C)(N)[C@H](O)[C@H](C)O2)Oc2ccc(cc2Cl)[C@H]1O")
"128 µg/mL"
>>> measurement("CC(=O)Oc1ccccc1C(=O)Nc1ncc([N+](=O)[O-])s1 [NITAZOXANIDE]")
"4 µg/mL"
>>> measurement("CO[C@H]1/C=C/O[C@@]2(C)Oc3c(C)c(O)c4c(O)c(c5c(nc6cc(C)ccn65)c4c3C2=O)NC(=O)/C(C)=C\\C=C\\[C@H](C)[C@H](O)[C@@H](C)[C@@H](O)[C@@H](C)[C@H](OC(C)=O)[C@@H]1C")
"0.5 µg/mL"

----------
Tested on: Prevotella melaninogenica
Assay: Antimicrobial activity against Prevotella melaninogenica by Wadsworth agar dilution method
Assay type: functional
measurementType: MIC90

>>> measurement("CO[C@H]1/C=C/O[C@@]2(C)Oc3c(C)c(O)c4c(O)c(c5c(nc6cc(C)ccn65)c4c3C2=O)NC(=O)/C(C)=C\\C=C\\[C@H](C)[C@H](O)[C@@H](C)[C@@H](O)[C@@H](C)[C@H](OC(C)=O)[C@@H]1C [RIFAXIMIN]")
"0.5 µg/mL"
>>> measurement("CC(=O)Oc1ccccc1C(=O)Nc1ncc([N+](=O)[O-])s1 [NITAZOXANIDE]")
"8 µg/mL"
>>> measurement("CN[C@H](CC(C)C)C(=O)N[C@H]1C(=O)N[C@@H](CC(N)=O)C(=O)N[C@H]2C(=O)N[C@H]3C(=O)N[C@H](C(=O)N[C@H](C(=O)O)c4cc(O)cc(O)c4-c4cc3ccc4O)[C@H](O)c3ccc(c(Cl)c3)Oc3cc2cc(c3O[C@@H]2O[C@H](CO)[C@@H](O)[C@H](O)[C@H]2O[C@H]2C[C@](C)(N)[C@H](O)[C@H](C)O2)Oc2ccc(cc2Cl)[C@H]1O [VANCOMYCIN]")
"256 µg/mL"
>>> measurement("NC[C@@H]1O[C@H](O[C@H]2[C@@H](O)[C@H](O[C@@H]3[C@@H](O)[C@H](N)C[C@H](N)[C@H]3O[C@H]3O[C@H](CN)[C@@H](O)[C@H](O)[C@H]3N)O[C@@H]2CO)[C@H](N)[C@@H](O)[C@@H]1O [FRAMYCETIN]")
"1020 µg/mL"

----------
Property: MIC50; scope: individual compounds
Tested on: Eubacterium cylindroides
Assay: Antimicrobial activity against Eubacterium cylindroides by Wadsworth agar dilution method
Assay type: functional
Conditions: Faecalitalea cylindroides
measurementType: MIC50 (µg/mL)

>>> measurement("CN[C@H](CC(C)C)C(=O)N[C@H]1C(=O)N[C@@H](CC(N)=O)C(=O)N[C@H]2C(=O)N[C@H]3C(=O)N[C@H](C(=O)N[C@H](C(=O)O)c4cc(O)cc(O)c4-c4cc3ccc4O)[C@H](O)c3ccc(c(Cl)c3)Oc3cc2cc(c3O[C@@H]2O[C@H](CO)[C@@H](O)[C@H](O)[C@H]2O[C@H]2C[C@](C)(N)[C@H](O)[C@H](C)O2)Oc2ccc(cc2Cl)[C@H]1O")
1
>>> measurement("CO[C@H]1/C=C/O[C@@]2(C)Oc3c(C)c(O)c4c(O)c(c5c(nc6cc(C)ccn65)c4c3C2=O)NC(=O)/C(C)=C\\C=C\\[C@H](C)[C@H](O)[C@@H](C)[C@@H](O)[C@@H](C)[C@H](OC(C)=O)[C@@H]1C")
0.5
>>> measurement("NC[C@@H]1O[C@H](O[C@H]2[C@@H](O)[C@H](O[C@@H]3[C@@H](O)[C@H](N)C[C@H](N)[C@H]3O[C@H]3O[C@H](CN)[C@@H](O)[C@H](O)[C@H]3N)O[C@@H]2CO)[C@H](N)[C@@H](O)[C@@H]1O")
128
>>> measurement("CC(=O)Oc1ccccc1C(=O)Nc1ncc([N+](=O)[O-])s1 [NITAZOXANIDE]")
2

----------
System: Collinsella aerofaciens
Assay: Antimicrobial activity against Colinsella aerofaciens by Wadsworth agar dilution method
Type: functional
measurementType: MIC50

>>> measurement("NC[C@@H]1O[C@H](O[C@H]2[C@@H](O)[C@H](O[C@@H]3[C@@H](O)[C@H](N)C[C@H](N)[C@H]3O[C@H]3O[C@H](CN)[C@@H](O)[C@H](O)[C@H]3N)O[C@@H]2CO)[C@H](N)[C@@H](O)[C@@H]1O")
"128 µg/mL"
>>> measurement("CN[C@H](CC(C)C)C(=O)N[C@H]1C(=O)N[C@@H](CC(N)=O)C(=O)N[C@H]2C(=O)N[C@H]3C(=O)N[C@H](C(=O)N[C@H](C(=O)O)c4cc(O)cc(O)c4-c4cc3ccc4O)[C@H](O)c3ccc(c(Cl)c3)Oc3cc2cc(c3O[C@@H]2O[C@H](CO)[C@@H](O)[C@H](O)[C@H]2O[C@H]2C[C@](C)(N)[C@H](O)[C@H](C)O2)Oc2ccc(cc2Cl)[C@H]1O")
"1 µg/mL"
>>> measurement("CO[C@H]1/C=C/O[C@@]2(C)Oc3c(C)c(O)c4c(O)c(c5c(nc6cc(C)ccn65)c4c3C2=O)NC(=O)/C(C)=C\\C=C\\[C@H](C)[C@H](O)[C@@H](C)[C@@H](O)[C@@H](C)[C@H](OC(C)=O)[C@@H]1C")
"0.5 µg/mL"
>>> measurement("CC(=O)Oc1ccccc1C(=O)Nc1ncc([N+](=O)[O-])s1 [NITAZOXANIDE]")
"2 µg/mL"

----------
Tested on: Peptostreptococcus anaerobius
Assay: Antimicrobial activity against Peptostreptococcus anaerobius by Wadsworth agar dilution method
Type: functional
Property: MIC50; scope: individual compounds
measurementType: MIC50

>>> measurement("NC[C@@H]1O[C@H](O[C@H]2[C@@H](O)[C@H](O[C@@H]3[C@@H](O)[C@H](N)C[C@H](N)[C@H]3O[C@H]3O[C@H](CN)[C@@H](O)[C@H](O)[C@H]3N)O[C@@H]2CO)[C@H](N)[C@@H](O)[C@@H]1O")
"128 µg/mL"
>>> measurement("CN[C@H](CC(C)C)C(=O)N[C@H]1C(=O)N[C@@H](CC(N)=O)C(=O)N[C@H]2C(=O)N[C@H]3C(=O)N[C@H](C(=O)N[C@H](C(=O)O)c4cc(O)cc(O)c4-c4cc3ccc4O)[C@H](O)c3ccc(c(Cl)c3)Oc3cc2cc(c3O[C@@H]2O[C@H](CO)[C@@H](O)[C@H](O)[C@H]2O[C@H]2C[C@](C)(N)[C@H](O)[C@H](C)O2)Oc2ccc(cc2Cl)[C@H]1O")
"0.5 µg/mL"
>>> measurement("CC(=O)Oc1ccccc1C(=O)Nc1ncc([N+](=O)[O-])s1 [NITAZOXANIDE]")
"0.5 µg/mL"
>>> measurement("CO[C@H]1/C=C/O[C@@]2(C)Oc3c(C)c(O)c4c(O)c(c5c(nc6cc(C)ccn65)c4c3C2=O)NC(=O)/C(C)=C\\C=C\\[C@H](C)[C@H](O)[C@@H](C)[C@@H](O)[C@@H](C)[C@H](OC(C)=O)[C@@H]1C")
"0.25 µg/mL"

----------
Test system: Clostridium bartlettii
Assay: Antimicrobial activity against Clostridium bartlettii by Wadsworth agar dilution method
Type: functional
Conditions: Intestinibacter bartlettii
measurementType: MIC50

>>> measurement("CO[C@H]1/C=C/O[C@@]2(C)Oc3c(C)c(O)c4c(O)c(c5c(nc6cc(C)ccn65)c4c3C2=O)NC(=O)/C(C)=C\\C=C\\[C@H](C)[C@H](O)[C@@H](C)[C@@H](O)[C@@H](C)[C@H](OC(C)=O)[C@@H]1C [RIFAXIMIN]")
"0.25 µg/mL"
>>> measurement("CN[C@H](CC(C)C)C(=O)N[C@H]1C(=O)N[C@@H](CC(N)=O)C(=O)N[C@H]2C(=O)N[C@H]3C(=O)N[C@H](C(=O)N[C@H](C(=O)O)c4cc(O)cc(O)c4-c4cc3ccc4O)[C@H](O)c3ccc(c(Cl)c3)Oc3cc2cc(c3O[C@@H]2O[C@H](CO)[C@@H](O)[C@H](O)[C@H]2O[C@H]2C[C@](C)(N)[C@H](O)[C@H](C)O2)Oc2ccc(cc2Cl)[C@H]1O [VANCOMYCIN]")
"1 µg/mL"
>>> measurement("NC[C@@H]1O[C@H](O[C@H]2[C@@H](O)[C@H](O[C@@H]3[C@@H](O)[C@H](N)C[C@H](N)[C@H]3O[C@H]3O[C@H](CN)[C@@H](O)[C@H](O)[C@H]3N)O[C@@H]2CO)[C@H](N)[C@@H](O)[C@@H]1O [FRAMYCETIN]")
"256 µg/mL"
>>> measurement("CC(=O)Oc1ccccc1C(=O)Nc1ncc([N+](=O)[O-])s1 [NITAZOXANIDE]")
"0.5 µg/mL"
